- runDescription: Mouse PK study (IV and PO), plasma parent compound and psilocin by LC-MS/MS
- Assay type: in vivo
- studyConditions: male, C57Bl/6, mouse, plasma, intravenous, 1 mg/kg, 1 mg/kg i.v. C(XX); 1 h; per animal; BLQ <0.25 ng/mL; read-out: Plasma concentration of C(XX)
quantityKind: concentration at 1 h (ng/mL)
Report the value in ng/mL with no unit label.

Task: Suppose we examine the compound CN(C)CCc1c[nH]c2cccc(OC(=O)c3cccc4c3OCCO4)c12 ; what concentration at 1 h value has been reported?
Output: 8.93

---

- runDescription: Mouse PK study (IV and PO), plasma parent compound and psilocin by LC-MS/MS
- Type: in vivo
- studyConditions: male, C57Bl/6, mouse, plasma, oral, 3 mg/kg, 3 mg/kg oral C(I); 6 h; per animal; BLQ <0.5 ng/mL; read-out: Plasma concentration of C(I)
quantityKind: concentration at 6 h (ng/mL)
Write the answer as a number in ng/mL, unit excluded.

Task: Find the recorded concentration at 6 h belonging to CN(C)CCc1c[nH]c2cccc(OC(=O)c3ccc(Br)cc3)c12 and report it.
Output: 0.371
